Source of measurements: paper PMC3499988

Overview of reported pKd across a group of binders:
Biological target: HIV-1 YU-2 gp120 (HIV-1 (YU-2), UniProt P35961)
Assay: SPR
# log scale: pKd equals minus log10 of the concentration in mol/L

Before answering, review these 4 worked examples.
Fab m18 N30A (HCDR1) (Fab, V domains shown) VH: VQLLESGPGVVKPSETLSLTCTVSGASVANYYWTWVRQPPGKGLEWIGNVYDSGDTNYNPSLSSRLSLSMDTSKNQFSLRLSSVTAADTATYYCARYHRHFIRGPLSFDYWGRGTLVTVSS VL: LQMTQSPSFLSASVGDRVSITCRASQDIQKFLAWYQLTPGDAPKLLMYSASTLQSGVPSRFSGSGSGTEFTLTISGLQPEDFATYYCQHLKRYPYTFGQGTKLEIS: 7.39
Fab m18 I100A (HCDR3) (Fab, V domains shown) VH: VQLLESGPGVVKPSETLSLTCTVSGASVNNYYWTWVRQPPGKGLEWIGNVYDSGDTNYNPSLSSRLSLSMDTSKNQFSLRLSSVTAADTATYYCARYHRHFARGPLSFDYWGRGTLVTVSS VL: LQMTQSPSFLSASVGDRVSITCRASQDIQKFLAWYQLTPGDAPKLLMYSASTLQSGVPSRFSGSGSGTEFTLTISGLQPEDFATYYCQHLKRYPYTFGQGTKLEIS: 7.88
Fab m18 P61A (HCDR2) (Fab, V domains shown) VH: VQLLESGPGVVKPSETLSLTCTVSGASVNNYYWTWVRQPPGKGLEWIGNVYDSGDTNYNASLSSRLSLSMDTSKNQFSLRLSSVTAADTATYYCARYHRHFIRGPLSFDYWGRGTLVTVSS VL: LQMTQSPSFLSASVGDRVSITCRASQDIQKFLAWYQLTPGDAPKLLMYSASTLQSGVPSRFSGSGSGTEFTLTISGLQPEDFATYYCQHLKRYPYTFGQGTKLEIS: 7.71
Fab m18 N31A (HCDR1) (Fab, V domains shown) VH: VQLLESGPGVVKPSETLSLTCTVSGASVNAYYWTWVRQPPGKGLEWIGNVYDSGDTNYNPSLSSRLSLSMDTSKNQFSLRLSSVTAADTATYYCARYHRHFIRGPLSFDYWGRGTLVTVSS VL: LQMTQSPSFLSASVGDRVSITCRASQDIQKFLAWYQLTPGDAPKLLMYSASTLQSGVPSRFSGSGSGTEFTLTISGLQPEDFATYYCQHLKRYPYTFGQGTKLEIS: 7.59

Now take the following binder into account.
Query block: Dear colleague, I am looking for the recorded pKd of the following binder: Fab m18 Y33A (HCDR1) (Fab, V domains shown) VH: VQLLESGPGVVKPSETLSLTCTVSGASVNNYAWTWVRQPPGKGLEWIGNVYDSGDTNYNPSLSSRLSLSMDTSKNQFSLRLSSVTAADTATYYCARYHRHFIRGPLSFDYWGRGTLVTVSS VL: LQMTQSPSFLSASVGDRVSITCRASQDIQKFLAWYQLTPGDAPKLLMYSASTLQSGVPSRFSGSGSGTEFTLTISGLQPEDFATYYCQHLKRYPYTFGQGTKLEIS
Result block: 7.51
